# Tested on: NCI-H2405
# assay: relative viability (nuclei count vs DMSO), 5 days (fraction); higher = more cells survive
# condition description: first compound 0.1265 µM
Rule: measured relative viability below 1 gets 1.0; anything equal to or greater than 1 gets 0.0.

Check out these entries, answers already filled in.
| compound | group |
| --- | --- |
| O=C(O)c1ccc(-c2c[nH]c3ncc(-c4ccccc4)cc23)cc1C1CCCC1 + Cc1nc(Nc2ncc(C(=O)Nc3c(C)cccc3Cl)s2)cc(N2CCN(CCO)CC2)n1 [Dasatinib] (partner 0.075 µM) | 1.0 |
| O=C(O)c1ccc(-c2c[nH]c3ncc(-c4ccccc4)cc23)cc1C1CCCC1 + O=C(c1cc(Cc2n[nH]c(=O)c3ccccc23)ccc1F)N1CCN(C(=O)C2CC2)CC1 [Olaparib] (partner 8 µM) | 1.0 |
| O=C(O)c1ccc(-c2c[nH]c3ncc(-c4ccccc4)cc23)cc1C1CCCC1 + COc1cc2c(Oc3ccc(NC(=O)C4(C(=O)Nc5ccc(F)cc5)CC4)cc3F)ccnc2cc1OCCCN1CCOCC1 [Foretinib] (partner 0.25 µM) | 0.0 |
| O=C(O)c1ccc(-c2c[nH]c3ncc(-c4ccccc4)cc23)cc1C1CCCC1 + COc1cccc2cc(-c3nc([C@H]4CC[C@H](C(=O)O)CC4)n4ncnc(N)c34)[nH]c12 [OSI-027] (partner 0.5 µM) | 1.0 |
| O=C(O)c1ccc(-c2c[nH]c3ncc(-c4ccccc4)cc23)cc1C1CCCC1 + O=C(CCCCCCC(=O)Nc1ccccc1)NO [Vorinostat] (partner 1 µM) | 0.0 |

Does O=C(O)c1ccc(-c2c[nH]c3ncc(-c4ccccc4)cc23)cc1C1CCCC1 + NC(=O)Nc1cc(-c2cccc(F)c2)sc1C(=O)N[C@H]1CCCNC1 [AZD7762] (partner 0.2 µM) have relative viability strictly under 1?
1.0

Does O=C(O)c1ccc(-c2c[nH]c3ncc(-c4ccccc4)cc23)cc1C1CCCC1 + Nc1nc2[nH]cc(CCc3ccc(C(=O)N[C@@H](CCC(=O)O)C(=O)O)cc3)c2c(=O)[nH]1 [Pemetrexed] (partner 0.2 µM) have relative viability strictly under 1?
0.0

Does O=C(O)c1ccc(-c2c[nH]c3ncc(-c4ccccc4)cc23)cc1C1CCCC1 + CC(=O)Nc1cccc(-n2c(=O)n(C3CC3)c(=O)c3c(Nc4ccc(I)cc4F)n(C)c(=O)c(C)c32)c1 [Trametinib] (partner 0.02 µM) have relative viability strictly under 1?
1.0

Does O=C(O)c1ccc(-c2c[nH]c3ncc(-c4ccccc4)cc23)cc1C1CCCC1 + C[C@@H](Oc1cc(-c2cnn(C3CCNCC3)c2)cnc1N)c1c(Cl)ccc(F)c1Cl [Crizotinib] (partner 1 µM) have relative viability strictly under 1?
1.0

* * *

# Tested on: LCLC-103H
# assay: relative viability (nuclei count vs DMSO), 5 days (fraction); higher = more cells survive
# condition description: first compound 0.1 µM
Catalogue of relative viability readings, one per entry.
Give the figure only, with no unit attached.

Take a look at these entries with their results.
| molecule | relative viability |
| --- | --- |
| NC(=O)Nc1cc(-c2cccc(F)c2)sc1C(=O)N[C@H]1CCCNC1 [AZD7762] + N=C(N)NC(=N)NCCc1ccccc1 [Phenformin] (partner 250 µM) | 0.352 |
| NC(=O)Nc1cc(-c2cccc(F)c2)sc1C(=O)N[C@H]1CCCNC1 [AZD7762] + CC(=O)Nc1cccc(-n2c(=O)n(C3CC3)c(=O)c3c(Nc4ccc(I)cc4F)n(C)c(=O)c(C)c32)c1 [Trametinib] (partner 0.02 µM) | 0.712 |
| NC(=O)Nc1cc(-c2cccc(F)c2)sc1C(=O)N[C@H]1CCCNC1 [AZD7762] + CC(=O)c1c(C)c2cnc(Nc3ccc(N4CCNCC4)cn3)nc2n(C2CCCC2)c1=O [Palbociclib] (partner 0.5 µM) | 0.639 |
| NC(=O)Nc1cc(-c2cccc(F)c2)sc1C(=O)N[C@H]1CCCNC1 [AZD7762] + C[C@]1(O)C[C@@H](c2nc(-c3ccc4ccc(-c5ccccc5)nc4c3)c3c(N)nccn32)C1 [Linsitinib] (partner 1 µM) | 0.997 |

Now let's try a different one.
Query NC(=O)Nc1cc(-c2cccc(F)c2)sc1C(=O)N[C@H]1CCCNC1 [AZD7762] + COc1cc2c(Oc3ccc(NC(=O)C4(C(=O)Nc5ccc(F)cc5)CC4)cc3F)ccnc2cc1OCCCN1CCOCC1 [Foretinib] (partner 0.25 µM) on LCLC-103H; relative viability returned: 0.82

* * *

# Tested on: NCI-H1666
# assay: relative viability (nuclei count vs DMSO), 5 days (fraction); higher = more cells survive
# condition description: first compound 0.253 µM
Catalogue of relative viability readings, one per entry.
Give the figure only, with no unit attached.

| compound | relative viability |
| --- | --- |
| C=C1C(=O)O[C@@H](CCCCCCCC)[C@@H]1C(=O)O [C-75] + CC(=O)c1c(C)c2cnc(Nc3ccc(N4CCNCC4)cn3)nc2n(C2CCCC2)c1=O [Palbociclib] (partner 0.5 µM) | 0.638 |

Item: C=C1C(=O)O[C@@H](CCCCCCCC)[C@@H]1C(=O)O [C-75] + NC(=O)Nc1cc(-c2cccc(F)c2)sc1C(=O)N[C@H]1CCCNC1 [AZD7762] (partner 0.2 µM) | relative viability: 0.955

Item: Oc1nc(-c2ccc(C(F)(F)F)cc2)nc2c1CSCC2 [XAV939] + COc1cccc2cc(-c3nc([C@H]4CC[C@H](C(=O)O)CC4)n4ncnc(N)c34)[nH]c12 [OSI-027] (partner 0.5 µM) | relative viability: 0.711

* * *

Catalogue of relative viability readings, one per entry.
# Tested on: A-427
# assay: relative viability (nuclei count vs DMSO), 5 days (fraction); higher = more cells survive
# condition description: first compound 0.1 µM
Give the figure only, with no unit attached.

| compound | relative viability |
| --- | --- |
| NC(=O)Nc1cc(-c2cccc(F)c2)sc1C(=O)N[C@H]1CCCNC1 [AZD7762] + CC1(C)CCC(c2ccc(Cl)cc2)=C(CN2CCN(c3ccc(C(=O)NS(=O)(=O)c4ccc(N[C@H](CCN5CCOCC5)CSc5ccccc5)c(S(=O)(=O)C(F)(F)F)c4)cc3)CC2)C1 [Navitoclax] (partner 0.5 µM) | 1.08 |

Item: NC(=O)Nc1cc(-c2cccc(F)c2)sc1C(=O)N[C@H]1CCCNC1 [AZD7762] + N=C(N)NC(=N)NCCc1ccccc1 [Phenformin] (partner 250 µM) | relative viability: 0.292

Item: NC(=O)Nc1cc(-c2cccc(F)c2)sc1C(=O)N[C@H]1CCCNC1 [AZD7762] + COc1cccc2cc(-c3nc([C@H]4CC[C@H](C(=O)O)CC4)n4ncnc(N)c34)[nH]c12 [OSI-027] (partner 0.5 µM) | relative viability: 0.343

Item: NC(=O)Nc1cc(-c2cccc(F)c2)sc1C(=O)N[C@H]1CCCNC1 [AZD7762] + COc1cc2c(Oc3ccc(NC(=O)C4(C(=O)Nc5ccc(F)cc5)CC4)cc3F)ccnc2cc1OCCCN1CCOCC1 [Foretinib] (partner 0.25 µM) | relative viability: 1.03

* * *

Catalogue of relative viability readings, one per entry.
# Test system: SK-MES-1
# assay: relative viability (nuclei count vs DMSO), 5 days (fraction); higher = more cells survive
# condition description: first compound 0.1581 µM
Give the figure only, with no unit attached.

| molecule | target | observed |
| --- | --- | --- |
| CC1(C)CCC(c2ccc(Cl)cc2)=C(CN2CCN(c3ccc(C(=O)NS(=O)(=O)c4ccc(N[C@H](CCN5CCOCC5)CSc5ccccc5)c(S(=O)(=O)C(F)(F)F)c4)cc3)CC2)C1 [Navitoclax] + Nc1nc2[nH]cc(CCc3ccc(C(=O)N[C@@H](CCC(=O)O)C(=O)O)cc3)c2c(=O)[nH]1 [Pemetrexed] (partner 0.2 µM) | SK-MES-1 | 0.884 |
| CC1(C)CCC(c2ccc(Cl)cc2)=C(CN2CCN(c3ccc(C(=O)NS(=O)(=O)c4ccc(N[C@H](CCN5CCOCC5)CSc5ccccc5)c(S(=O)(=O)C(F)(F)F)c4)cc3)CC2)C1 [Navitoclax] + CCNC(=O)c1noc(-c2cc(C(C)C)c(O)cc2O)c1-c1ccc(CN2CCOCC2)cc1 [Luminespib] (partner 0.01 µM) | SK-MES-1 | 0.743 |
| CC1(C)CCC(c2ccc(Cl)cc2)=C(CN2CCN(c3ccc(C(=O)NS(=O)(=O)c4ccc(N[C@H](CCN5CCOCC5)CSc5ccccc5)c(S(=O)(=O)C(F)(F)F)c4)cc3)CC2)C1 [Navitoclax] + Nc1ncn([C@H]2C[C@H](O)[C@@H](CO)O2)c(=O)n1 [Decitabine] (partner 2 µM) | SK-MES-1 | 0.344 |

Item: CC1(C)CCC(c2ccc(Cl)cc2)=C(CN2CCN(c3ccc(C(=O)NS(=O)(=O)c4ccc(N[C@H](CCN5CCOCC5)CSc5ccccc5)c(S(=O)(=O)C(F)(F)F)c4)cc3)CC2)C1 [Navitoclax] + CC(=O)c1c(C)c2cnc(Nc3ccc(N4CCNCC4)cn3)nc2n(C2CCCC2)c1=O [Palbociclib] (partner 0.5 µM) | relative viability: 0.303

Cited source: the supplement of paper PMC10307832
